Source listed as PubChem BioAssay (NCATS).

Target: Lysosomal acid glucosylceramidase (Homo sapiens) (UniProt P04062)
Sequence (P04062 whole entry, looked up): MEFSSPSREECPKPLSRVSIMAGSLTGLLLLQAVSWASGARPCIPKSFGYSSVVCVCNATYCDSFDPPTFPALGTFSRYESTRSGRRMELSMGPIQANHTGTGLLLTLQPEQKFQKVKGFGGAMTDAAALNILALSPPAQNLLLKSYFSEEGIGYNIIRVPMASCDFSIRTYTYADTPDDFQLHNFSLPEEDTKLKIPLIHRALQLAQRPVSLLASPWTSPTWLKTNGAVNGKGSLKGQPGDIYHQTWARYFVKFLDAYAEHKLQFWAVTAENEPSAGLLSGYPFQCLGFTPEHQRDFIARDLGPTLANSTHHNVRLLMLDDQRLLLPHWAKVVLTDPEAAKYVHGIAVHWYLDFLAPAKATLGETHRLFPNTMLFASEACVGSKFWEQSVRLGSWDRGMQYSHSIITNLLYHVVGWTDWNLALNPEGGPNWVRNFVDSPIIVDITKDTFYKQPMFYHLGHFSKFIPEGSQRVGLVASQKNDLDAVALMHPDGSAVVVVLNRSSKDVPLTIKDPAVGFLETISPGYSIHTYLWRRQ
Assay: Glucocerebrosidase-p2 (AID 348); further: potency means the concentration at half of the fitted maximal effect
Conditions: purified GBA, blue fluorogenic substrate, 40 min
Text: Beta-glucocerebrosidase catalyzes the hydrolysis of beta-glucocerebroside to glucose and ceramide. The inherited deficiency of beta-glucocerebrosidase results in Gaucher disease, which is characterized by a wide variety of symptoms including hepatosplenomegaly, anemia, thrombocytopenia, bony lesions and bone marrow infiltration with characteristic storage cells, known as Gaucher cells. […] Blue fluorescence substrate assay: […] Read the plate in Viewlux plate reader (Ex=365(10) and Em=440(10)).
The source made the active and inactive calls. No stated cut-off is given here; in the data, active means potency below about 10 µM; inactive means the rest.
The reply should name one outcome from 1 for active, -1 for inactive

Known results for compounds:
COCCn1c(=O)c(-c2cn(C)c3ccccc23)nc2cncnc21 = -1
c1ccc2c(Nc3ccncc3)nc(-c3ccc4c(c3)OCO4)nc2c1 = 1
N#CCCn1c(=O)cnc2cnc(N3CCNCC3)nc21 = -1
COc1ccccc1-c1cncnc1NCc1ccccc1 = -1

Input line: Identify the outcome logged in this assay for the compound shown: N#CCCn1c(=O)c(-c2ccc(F)cc2)nc2cnc(N3CCNCC3)nc21
Output line: -1

Input line: Given CN(Cc1ccco1)c1nc(-c2cccc(C#N)c2)nc2ccccc12 , state the outcome it received in this test.
Output line: -1

Input line: Please let me know the test result on file for COCC(=O)N1CCC2(CC1)CN(c1ccncc1)C2 .
Output line: -1

Input line: // return assay outcome for COc1ncc2nc(-c3cn(C)c4ccccc34)c(=O)n(-c3ccccc3)c2n1
Output line: -1
